- tested target: T1, recombinant human KDR (human, UniProt P35968 20-764, limits assumed)
- T1 construct: also called VEGFR2
- T1 sequence (P35968 20-764 limits assumed): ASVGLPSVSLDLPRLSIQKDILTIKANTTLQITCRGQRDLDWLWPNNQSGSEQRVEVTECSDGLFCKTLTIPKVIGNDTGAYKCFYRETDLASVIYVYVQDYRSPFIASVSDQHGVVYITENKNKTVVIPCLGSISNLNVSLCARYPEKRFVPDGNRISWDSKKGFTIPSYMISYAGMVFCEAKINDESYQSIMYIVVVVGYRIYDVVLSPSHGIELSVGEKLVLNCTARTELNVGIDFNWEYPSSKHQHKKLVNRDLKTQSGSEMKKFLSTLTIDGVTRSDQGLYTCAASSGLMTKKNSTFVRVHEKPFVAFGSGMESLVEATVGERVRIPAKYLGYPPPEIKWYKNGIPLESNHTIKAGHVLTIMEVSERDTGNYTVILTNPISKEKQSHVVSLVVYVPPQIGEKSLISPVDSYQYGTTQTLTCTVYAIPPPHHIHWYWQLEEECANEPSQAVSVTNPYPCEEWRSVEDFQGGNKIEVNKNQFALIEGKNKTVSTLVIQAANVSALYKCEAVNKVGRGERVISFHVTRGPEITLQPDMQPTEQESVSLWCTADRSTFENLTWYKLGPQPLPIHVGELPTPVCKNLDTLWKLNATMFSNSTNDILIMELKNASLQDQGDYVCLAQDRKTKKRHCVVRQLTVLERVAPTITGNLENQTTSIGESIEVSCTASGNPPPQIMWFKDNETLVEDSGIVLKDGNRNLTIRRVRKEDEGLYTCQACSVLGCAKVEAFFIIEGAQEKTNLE
- assay protocol: inhibition of KDR binding to VEGF, ligand-receptor binding assay
measure name: pIC50
Remember the convention: pIC50 equals -log10 of concentration in molar.

Example entries and their recorded answers appear below.
rabbit anti-KDR antibody clone 24 (antibody, V domains shown, rabbit monoclonal antibody, recombinantly expressed and purified for characterization) VH: QSVEESGGRLVTPGTPLTLTCTVSGFSLSSNAMSWVRQAPGEGLEWIGTISSSGSTYYATWVKGRFTISKTSTTVDLKMTSLTAADTATYFCARGDDDVSDYFYYFPIWGPGTLVTVSS VL: AVVLTQTASPVSGAVGGTVTIKCQASQNIYNNLAWYRQKPGQPPKLLIYAASKLASGVPSRFSGSRSGTQFTLSISDLECADAATYYCQSYYFDSSSTDAAFGGGTEVVVK: 7.70
rabbit anti-KDR antibody clone 83 (antibody, V domains shown, rabbit monoclonal antibody, recombinantly expressed and purified for characterization) VH: QSLEESGGRLVTPGTPLTLTCTVSGIDLSAYAMSWVRQAPGKGLEWIGLIRSSGATYYASWAKGRFTISKTSTTVDLKMTSPTTEDTATYFCARVLWPGEIAYAYHNIWGPGTLVTVSS VL: DVVMTQTPASVSEPVGGTVTINCQASEEIGGNLAWYQQKPGQPPKLLIYSASSLTSGVPSRFKGSESGTEYTLTISDLECADAATYYCQYSYYGFNYVGPFGGGTEVVVK: 8.01

Switching to the query record.
Identify the reported pIC50 for the following entry. rabbit anti-KDR antibody clone 27 (antibody, V domains shown, rabbit monoclonal antibody, recombinantly expressed and purified for characterization) VH: QSVEESGGRLVTPGTPLTLTCTASGFALNDFAMSWVRQAPGKGLEWIGMIASSGNTFYASWAKGRFTISKTSTTVDLKFTSPTTEDTATYFCARVLWPGYIAYAYHNIWGPGTLVTVSS VL: DPVLTQTPASVSAVVGGTVTINCQTSEDIASNLAWYQQKSGQRPKLLIYEASKLASGVPSRFKGSGSGTEYTLTISDLECADAATYYCQYTYYGSSYLGAFGGGTEVVVK
8.23
